- Protocol Summary: chemical genetic growth profiling, strain panel (AID 1159580);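 also: tested at 20 µM; growth read once vehicle control cultures reached saturation at 30 °C; 1 = growth at the plate median or of vehicle wells; lower values mean less growth of the strain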
- Reported Conditions: S. cerevisiae deletion strains, growth OD, locus YGR078C, strain PAC10, active compounds read low
Hit rate of the full screen: of about 5,500 compounds, about 2,000 (36%) were called active. About 18% were inconclusive and are not listed. Some of the results follow.
Catalogue of compounds with associated normalized growth
Lab note: record the figure alone, no unit after it.

Please review the following examples before continuing.
- Compound: "COP(=O)(OC)OC=C(Cl)Cl"
  normalized growth: 0.989
- Compound: "COC(=O)c1sccc1OC(=O)c1c(F)cccc1F"
  normalized growth: 0.955
- Compound: "CNCC(O)c1ccc(O)c(O)c1 (centres undefined)"
  normalized growth: 1.02

Bench note: what normalized growth did CCCCNc1cc(C(=O)O)cc(S(N)(=O)=O)c1Oc1ccccc1 show?
0.98

normalized growth for O=C(O)c1c2ccccc2cc2ccccc12 ?
1.01

Look up normalized growth for this compound: COc1cc2c(cc1OC)C1C(=O)c3c(OC)cc4c(c3OC1CO2)CCC(C)(C)O4 (centres undefined)
1.03

# lookup: normalized growth of CN1CCC(=C2c3ccccc3Sc3ccccc32)CC1
0.977

Could you tell me which normalized growth is on file for COc1ccc2c(c1OC)C(=O)O[C@H]2[C@H]1c2cc3c(cc2CCN1C)OCO3 ?
0.992

Which measured normalized growth value corresponds to CCC(C)C(=O)O[C@H]1[C@H](O)C2C(CN3CC(C)CCC3[C@@]2(C)O)C2C[C@]34O[C@]5(O)C(OC(=O)C(C)(O)C(C)O)CC[C@@]3(C)C5C(OC(C)=O)[C@@H](OC(C)=O)C4[C@@]21O (some centres undefined) ?
1.01

Sample C[C@@H]1[C@H]2[C@H](O[C@@H]3O[C@H](CO)[C@@H](O)[C@H](O)[C@H]3O)OC=C(C(=O)O)[C@H]2C[C@@H]1O — what was its normalized growth?
0.984

Sample S=c1nc[nH]c2nc[nH]c12 — what was its normalized growth?
1

Suppose we examine the compound CC(C)C[C@H](NC(=O)[C@@H](O)[C@H](N)Cc1ccccc1)C(=O)O ; what normalized growth value has been reported?
0.998

For N#CCOc1ccc(Cl)cc1Cl , what is its reported normalized growth?
0.965

Return reported normalized growth; argument: O=C(O)c1cc2ccccc2c(Cc2c(O)c(C(=O)O)cc3ccccc23)c1O
0.996
